# System: W3-BTJA strain
# method summary: O-succinylhomoserine production of feed back resistant metA in W3-BTJA strain, Erlenmeyer flask culture
# Assay type: cell-based, E. coli
# experimental context: metA plasmid in W3-BTJA strain; flask culture 64 hours, HPLC; wild type = 100%
value type: O-succinylhomoserine production (%)
Answers are plain numbers, in %.

Task: Returns the measured O-succinylhomoserine production (%) for the input molecule. Input: w.t.: wild type metA, homoserine O-succinyltransferase of E. coli (protein, UniProt P07623 2-309, looked up) Homoserine …: PIRVPDELPAVNFLREENVFVMTTSRASGQEIRPLKVLILNLMPKKIETENQFLRLLSNSPLQVDIQLLRIDSRESRNTPAEHLNNFYCNFEDIQDQNFDGLIVTGAPLGLVEFNDVAYWPQIKQVLEWSKDHVTSTLFVCWAVQAALNILYGIPKQTRTEKLSGVYEHHILHPHALLTRGFDDSFLAPHSRYADFPAALIRDYTDLEILAETEEGDAYLFASKDKRIAFVTGHPEYDAQTLAQEFFRDVEAGLDPDVPYNYFPHNDPQNTPRASWRSHGNLLFTNWLNYYVYQITPYDLRHMNPTLD
Output: 100
